Tested on: Rheumatoid Arthritis Synovial Fibroblast (RASF)
ASSAY DETAILS: In vitro inhibition of rheumatoid arthritis synovial fibroblast (RASF) proliferation
Type: cell-based
ATTRIBUTE MEASURED: IC50 (nM)
Express your answer in nM, writing the number without its unit.

Task item: Please look up its IC50: c1cc(-c2nc(N3CCOCC3)c3oc4ncc(CN5CCOCC5)cc4c3n2)c2cc[nH]c2c1 [K]
Reply: 3020
